Test: NCI Yeast Anticancer Drug Screen. Data for the rad50 strain (AID 155);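 further: 0% = growth of vehicle-only cultures of the same strain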
Settings: S. cerevisiae rad50 strain growth inhibition; at 50.0 µM (retest, dose inferred, filed as 5.0)
This is part of a sample that, as a whole, favours compounds with a hit. Of some 79,000 tested, about 15% had one in any assay. The source made the active and inactive calls. No stated cut-off is given here; in the data, active means growth inhibition above about 70%; inactive means the rest.
Lab note: assign the record to one of 1 (active), 0 (inactive)

Reference set (3 entries):
CC(/C=C1\C(=O)N(C)C(CC(C)C(Cl)(Cl)Cl)C(=O)N1C)C(Cl)(Cl)Cl (centres undefined) : 1
N#CCCN(CCC#N)c1ccc(C(Sc2ccccc2)C(NC(=O)c2cc([N+](=O)[O-])ccc2Cl)C(=O)Sc2ccccc2)cc1 (centres undefined) : 1
COc1cc2c(cc1O)C(O)CCCC2 (centres undefined) : 0

Read the next record carefully.
Q: Call for entry CC(C)c1ccc(C(=O)C2CC2)cc1 :
Result: 0

---

Experiment: NCI Yeast Anticancer Drug Screen. Data for the cln2 rad14 strain (AID 165);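 further: 0% = growth equal to vehicle treated cultures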
Settings: S. cerevisiae cln2 rad14 strain, at 5.0 µM (retest, dose inferred, filed as 0.5)
About 79,000 compounds went through this panel and 15% of them were active in at least one assay; those are over-represented in the sample as a whole. Activity calls are given as the source filed them. Rule as the data show it: active = growth inhibition above about 70%; inactive = the rest.
Lab note: assign the record to one of active, inactive

Reference set (3 entries):
Cc1cccc(-c2csc(N)n2)c1 : inactive
CCCCCCCCCCCC(N)c1ccccc1 (stereo not given) : active
CCCCc1ccc2nc(C)cc(N=[N+]=[N-])c2c1 : inactive

Q: Call for entry CCN(CCN1C(=O)C2CCCCC2C1=O)c1ccc(N=O)c(C)c1 (stereo not given) :
Result: inactive

Q: // repeat for OCCN(CCO)c1cc(/C=C/c2ccnc3ccccc23)nc2ccccc12 and report
Result: inactive

---

Experiment: NCI Yeast Anticancer Drug Screen. Data for the bub3 strain (AID 167)
Conditions: S. cerevisiae bub3 mutant strain, at 50.0 µM (retest, dose inferred, filed as 5.0), stronger effect = higher value
Procedure: Growth inhibition of yeast strains with defined genetic alterations is measured as a screen for potential anti-cancer activity. Selected strains with alterations in DNA damage repair or cell cycle control were exposed to compounds and growth inhibition was measured relative to vehicle treated controls. The strain used in this assay is bub3
The panel holds about 79,000 compounds, 15% with a hit somewhere; the sample as a whole holds those more often.
Could you please classify the records by growth inhibition using these ranges: LOW: < 10%; MEDIUM: ≥ 10% and < 80%; HIGH: ≥ 80%

Reference set (5 entries):
CN1CC[N+](C)(Cc2ccc(C[N+]3(C)CC[N+](C)(Cc4ccc(CCl)cc4)CC3)cc2)CC1 (stereo not given) : HIGH
CC1OC(OP(=O)(OCc2ccccc2)OCc2ccccc2)C(OC(=O)c2ccccc2)C(OC(=O)c2ccccc2)C1I (stereo not given) : MEDIUM
CN(C)/N=C\C1CC=CCC1 (stereo not given) : LOW
CCOP(=O)(OCC)OC1c2[nH]ccc2-c2cc(C(=O)OC)[nH]c2C1OC (stereo not given) : LOW
CCCCCCCCN(CCCCCCCC)CC(O)c1cc(-c2ccc(Cl)cc2)nc2c(Cl)cccc12 (stereo not given) : MEDIUM

Q: Category of CC(Cl)C(=O)Nc1cc2ccccc2oc1=O (stereo not given) , please.
Result: LOW

Q: // repeat for CC(=O)OCC1OC(OC2CCCc3c(O)c4c(c(O)c32)C(=O)c2ccccc2C4=O)C(OC(C)=O)C(OC(C)=O)C1OC(C)=O (stereo not given) and report
Result: HIGH

Origin of values: PubChem BioAssay (NCI)
